# credit: patent US7456164B2

Each item that follows carries a reported log10 of Ki.
tgt: human histamine H3 receptor (Homo sapiens)
Construct: expressed in transfected cells
test protocol: H3 cell based functional assay (cAMP, β-lactamase reporter gene)
conditions used: functional Ki from IC50 by Cheng-Prussoff; HEK-293 CRE β-lactamase cells, 10 μM forskolin, 1 nM imetit; read-out: Ki (H3 cell based assay - nM)
Remember, log10 of Ki, in nM.

Check out these entries, answers already filled in.
smiles code | recorded measurement
O=C(N1CCC1)C1(c2ccc(OCCCN3CCCC3)cc2)CCOCC1 | 1.16
c1c[nH]c(C2(c3ccc(OCCCN4CCCC4)cc3)CCOCC2)n1 | 0.99
CCN(C)C(=O)C1(c2ccc(OCCCN3CCCC3)cc2)CCOCC1 | 0.38
c1cc(C2(Cn3cnnc3)CCOCC2)ccc1OCCCN1CCCC1 | 1.03
CN(C)C(=O)C1(c2ccc(OC3CCN(C4CCC4)CC3)cc2)CCOCC1 | 0.00
CNCC1(c2ccc(OCCCN3CCOCC3)cc2)CCOCC1 | 0.11
CN(C)CC1(c2ccc(OCCCN3CCCC3)cc2)CCOCC1 | -0.40
O=C(N1CCCC1)C1(c2ccc(OCCCN3CCCC3)cc2)CCOCC1 | 0.86

// recorded log10 of Ki for O=C(N1CCCCC1)C1(c2ccc(OCCCN3CCCC3)cc2)CCOCC1 : 0.83

Just so you know, measured log10 of Ki for CNC(=O)C1(c2ccc(OC3CCN(C4CCC4)CC3)cc2)CCOCC1 came out at 0.30

The molecule c1cc2c(cn1)ncn2CC1(c2ccc(OCCCN3CCCC3)cc2)CCOCC1 showed log10 of Ki equal to 0.59

* * *

tgt: human histamine H3 receptor (Homo sapiens, UniProt Q9Y5N1)
Construct: expressed in transfected cells
Sequence (Q9Y5N1 whole entry): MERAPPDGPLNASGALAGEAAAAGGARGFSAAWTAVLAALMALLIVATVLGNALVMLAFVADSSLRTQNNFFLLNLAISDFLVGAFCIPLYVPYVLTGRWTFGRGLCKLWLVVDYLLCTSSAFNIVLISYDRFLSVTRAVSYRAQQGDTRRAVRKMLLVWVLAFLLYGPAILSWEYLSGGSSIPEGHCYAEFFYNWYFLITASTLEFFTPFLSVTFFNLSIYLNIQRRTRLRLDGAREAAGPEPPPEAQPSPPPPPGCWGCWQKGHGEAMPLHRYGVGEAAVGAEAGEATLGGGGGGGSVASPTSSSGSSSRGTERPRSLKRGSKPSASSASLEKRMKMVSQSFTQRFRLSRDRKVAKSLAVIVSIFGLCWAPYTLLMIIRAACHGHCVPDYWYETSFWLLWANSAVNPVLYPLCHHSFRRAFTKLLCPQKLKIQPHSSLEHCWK
test protocol: H3 cell based functional assay (cAMP, β-lactamase reporter gene)
assay endpoint: Ki

Briefly, Ki measured for CC(C)N1CCC(Oc2ccc(C3(CNc4ccnnc4)CCOCC3)cc2)CC1 [Example 267] : 5.8 nM

* * *

tgt: human histamine H3 receptor (Homo sapiens, UniProt Q9Y5N1)
Construct: expressed in transfected cells
test protocol: H3 cell based functional assay (cAMP, β-lactamase reporter gene)
conditions used: functional Ki from IC50 by Cheng-Prussoff; HEK-293 CRE β-lactamase cells, 10 μM forskolin, 1 nM imetit; read-out: Ki (H3 cell based assay - nM)
Mark each entry Criterion met if its Ki sits below 3 nM, and Criterion not met for all others.

Consider the worked cases shown below.
smiles code | classification
CC(C)N1CC(COc2ccc(C3(CN4CCOCC4)CCOCC3)cc2)C1 | Criterion met
c1cnc2c(c1)ncn2CC1(c2ccc(OCCCN3CCCC3)cc2)CCOCC1 | Criterion met
CN(C)C(=O)C1(c2ccc(OCCCN3CCCC3)cc2)CCOCC1 | Criterion not met
c1ncc(C2(c3ccc(OCCCN4CCCC4)cc3)CCOCC2)o1 | Criterion not met
Cc1csc(C2(c3ccc(OCCCN4CCCC4)cc3)CCOCC2)n1 | Criterion not met

Please check: Ki for CC(C)N1CCC(Oc2ccc(C3(C(=O)N(C)C)CCOCC3)cc2)CC1 , strictly under 3 nM or not?
Criterion not met

Decide: Ki of CN(C)CC1(c2ccc(OCCCN3CCOCC3)cc2)CCOCC1 strictly below 3 nM?
Criterion met

Please check: Ki for c1cc(NCC2(c3ccc(OCCCN4CCCC4)cc3)CCOCC2)cnn1 , strictly under 3 nM or not?
Criterion not met

Please state whether Ki is below 3 nM for c1ccc(C2(c3ccc(OCCCN4CCCC4)cc3)CCOCC2)nc1
Criterion not met

* * *

tgt: human histamine H3 receptor (Homo sapiens, UniProt Q9Y5N1)
Construct: expressed in transfected cells
test protocol: H3 cell based functional assay (cAMP, β-lactamase reporter gene)
conditions used: functional Ki from IC50 by Cheng-Prussoff; HEK-293 CRE β-lactamase cells, 10 μM forskolin, 1 nM imetit; read-out: Ki (H3 cell based assay - nM)
assay endpoint: Ki
Output should be the measured figure followed by the unit it is expressed in.

// recorded Ki for CCNC(=O)C1(c2ccc(OC3CCN(C4CCC4)CC3)cc2)CCOCC1 : 1.5 nM

For reference, reported Ki for c1cc(C2(CN3CCOCC3)CCOCC2)ccc1OCCCN1CCCOCC1 stands at 6.5 nM

Given item c1cnc2ncn(CC3(c4ccc(OCCCN5CCCC5)cc4)CCOCC3)c2c1 , the value recorded as its Ki is 9.7 nM

Ki recorded for this compound, c1cc(C2(c3ccc(OCCCN4CCCC4)cc3)CCOCC2)ncn1 , is 6.2 nM

# Ki (compound: c1ccc2c(c1)ncn2CC1(c2ccc(OCCCN3CCCC3)cc2)CCOCC1 ) is 0.6 nM
